- assay-text: recombinant barcode read abundance after kanamycin selection (control-corrected) (log10(CPM+1)); higher = more efficient recombination; sequences stand for … in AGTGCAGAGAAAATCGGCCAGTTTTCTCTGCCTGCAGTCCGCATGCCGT…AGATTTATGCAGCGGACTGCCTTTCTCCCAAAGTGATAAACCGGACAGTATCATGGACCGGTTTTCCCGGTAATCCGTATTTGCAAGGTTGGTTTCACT; site = the 11-nt target;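 further: IS621 recombinase and bridge RNA in Escherichia coli cells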
Could you please report measured recombinant barcode read abundance (log10) for the items listed next?
Form rule: numeric answer, no unit written next to it.

Ask: For the sequence CACATCTCTTGGGTTCTAACCTGTTGCCT (site CACATATCTAT) , what recombinant barcode read abundance (log10) is on record?
Result: 0.0495

Ask: For the sequence CAGTTAGCTTGGGTTCTAACCTGTTGCCT (site CAGTTGGCTAG) , what recombinant barcode read abundance (log10) is on record?
Result: 0.0405

Ask: For the sequence GGCACGGCTTGGGTTCTAACCTGTTGCCT (site GGCACGGCTAG) , what recombinant barcode read abundance (log10) is on record?
Result: 0.134

Ask: For the sequence GACGGCTCTTGGGTTCTAACCTGTTGCCT (site GACGGCTCTAG) , what recombinant barcode read abundance (log10) is on record?
Result: 1.3

Ask: For the sequence GATTTCTCTTGGGTTCTAACCTGTTGCCT (site AATTTCTCTAG) , what recombinant barcode read abundance (log10) is on record?
Result: 0.104

Ask: For the sequence CGGAAGACTTGGGTTCTAACCTGTTGCCT (site CGGAAGACTAG) , what recombinant barcode read abundance (log10) is on record?
Result: 1.98

Ask: For the sequence CCACTACCTTGGGTTCTAACCTGTTGCCT (site CCACTCCCTAG) , what recombinant barcode read abundance (log10) is on record?
Result: 0.0236

Ask: For the sequence GAGATTCCTTGGGTTCTAACCTGTTGCCT (site CAGATTCCTAG) , what recombinant barcode read abundance (log10) is on record?
Result: 0.0463

Ask: For the sequence TCTGGGGCTTGGGTTCTAACCTGTTGCCT (site TCTGGGGCTAG) , what recombinant barcode read abundance (log10) is on record?
Result: 0.0357

Ask: For the sequence CTCGGATCTTGGGTTCTAACCTGTTGCTG (site CTCGGATCTGA) , what recombinant barcode read abundance (log10) is on record?
Result: 0

Ask: For the sequence GGCAGGTCTTGGGTTCTAACCTGTTGCTT (site GGCAGATCTAA) , what recombinant barcode read abundance (log10) is on record?
Result: 0.163

Ask: For the sequence GCTCATACTTGGGTTCTAACCTGTTGCCT (site GCTCATACTAG) , what recombinant barcode read abundance (log10) is on record?
Result: 0.714

Ask: For the sequence CAGAGTCCTTGGGTTCTAACCTGTTGCTT (site CAGAGTCCTAA) , what recombinant barcode read abundance (log10) is on record?
Result: 1.59

Each recorded value in this set is attributed to the supplement of paper PMC11208160.
